These entries and their values trace back to patent CN114790245A.

target: 血浆激肽释放酶(plasma kallikrein,PK) (human, UniProt P03952 20-638); test: cell-based or functional assay
Sequence (P03952 20-638 limits assumed): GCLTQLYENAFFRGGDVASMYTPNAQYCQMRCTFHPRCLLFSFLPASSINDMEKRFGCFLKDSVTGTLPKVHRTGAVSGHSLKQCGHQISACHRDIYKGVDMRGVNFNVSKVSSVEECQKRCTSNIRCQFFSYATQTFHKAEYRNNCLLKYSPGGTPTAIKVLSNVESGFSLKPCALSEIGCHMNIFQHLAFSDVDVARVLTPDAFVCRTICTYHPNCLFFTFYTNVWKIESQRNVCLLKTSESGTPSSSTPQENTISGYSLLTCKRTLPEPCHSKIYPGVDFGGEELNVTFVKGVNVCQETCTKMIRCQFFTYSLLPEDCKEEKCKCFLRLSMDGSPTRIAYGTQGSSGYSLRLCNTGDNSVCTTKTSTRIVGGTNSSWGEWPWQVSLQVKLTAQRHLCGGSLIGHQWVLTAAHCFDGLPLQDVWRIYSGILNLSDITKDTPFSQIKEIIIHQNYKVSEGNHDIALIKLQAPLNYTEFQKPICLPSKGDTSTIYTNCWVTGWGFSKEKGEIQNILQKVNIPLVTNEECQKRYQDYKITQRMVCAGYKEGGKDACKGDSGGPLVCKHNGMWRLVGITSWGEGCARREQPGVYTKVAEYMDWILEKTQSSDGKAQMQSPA
observable: IC50(nM), PK activity in human plasma activated with Factor XIIa (H-Pro-Phe-Arg-AMC)
// units = nM; emit number, no label

Just so you know, measured IC50(nM), PK activity in human plasma activated with Factor XIIa (H-Pro-Phe-Arg-AMC) for KH09 (antibody, human IgG4 S228P, kappa, V domains shown) VH: EVQLVESGGALVKPGGSLRLSCAASGFNIKDTYIFWVRQMPRKGLEWIGRIDPENDNTKYDPKIQGKATITADTSTDTAYMELSSLTSEDTAVYYCAKGGGLFAYWGQGTLVTVSS VL: DIQMTQSPSAMSASVGDRVTITCEASHDINNYIAWYQQKPGKAPKLLIYYTSTLQSGVPSRFSGSGSGTDFTFTISSLQPEDIATYYCLQYDNLFTFGQGTKVEIKR came out at 0.764
